- Tested on: Staphylococcus aureus
- TEST_SUMMARY: Antibacterial activity against methicillin-sensitive Staphylococcus aureus ATCC 9144 after 20 hrs by broth micro dilution method
- Format: functional
- EXPERIMENTAL_PARAMETERS: ATCC 9144, 20 h
Overview of recorded MIC for various compounds
PROPERTY_NAME: MIC

- CC1(C)S[C@@H]2[C@H](NC(=O)[C@H](N)c3ccc(O)cc3)C(=O)N2[C@H]1C(=O)O: 0.1 to 2 µg/mL
- CC(C)(C)OC(=O)N1CCN(c2ccc(C3CC(c4ccc([N+](=O)[O-])o4)=NO3)cc2)CC1 (stereo unspecified): 32 µg/mL
- O=C1CN(/N=C/c2ccc([N+](=O)[O-])o2)C(=O)N1: 16 µg/mL
- O=[N+]([O-])c1ccc(C2=NOC(c3ccc(N4CCN(Cc5cccnc5)CC4)cc3)C2)o1 (stereo unspecified): 16 µg/mL
- O=[N+]([O-])c1ccc(C2=NOC(c3ccc(-c4ccncc4)cc3)C2)o1 (stereo unspecified): 64 µg/mL
- O=[N+]([O-])c1ccc(C2=NOC(c3ccc(-c4cccnc4)cc3)C2)o1 (stereo unspecified): 32 µg/mL
- COc1ccc(CN2CCN(c3ccc(C4CC(c5ccc([N+](=O)[O-])o5)=NO4)cc3)CC2)cn1 (stereo unspecified): 32 µg/mL
- O=[N+]([O-])c1ccc(C2=NOC(c3ccc(N4CCN(Cc5ccccn5)CC4)cc3)C2)o1 (stereo unspecified): 16 µg/mL
- O=[N+]([O-])c1ccc(C2=NOC(c3ccc(-c4ccccn4)cc3)C2)o1 (stereo unspecified): > 128 µg/mL
- O=[N+]([O-])c1ccc(C2=NOC(c3ccc(N4CCN(Cc5ccncc5)CC4)cc3)C2)o1 (stereo unspecified): 16 µg/mL
- O=[N+]([O-])c1ccc(C2=NOC(c3ccc(N4CCN(Cc5ccc(F)nc5)CC4)cc3)C2)o1 (stereo unspecified): 32 µg/mL

Data origin, for the record: ChEMBL document CHEMBL4052664
